Target: T1, mutant human CD20 #8 (Y77F, N163D, N166D) (human, UniProt P11836 1-297)
T1 construct: Stably expressed on MG87 cells
T1 chain: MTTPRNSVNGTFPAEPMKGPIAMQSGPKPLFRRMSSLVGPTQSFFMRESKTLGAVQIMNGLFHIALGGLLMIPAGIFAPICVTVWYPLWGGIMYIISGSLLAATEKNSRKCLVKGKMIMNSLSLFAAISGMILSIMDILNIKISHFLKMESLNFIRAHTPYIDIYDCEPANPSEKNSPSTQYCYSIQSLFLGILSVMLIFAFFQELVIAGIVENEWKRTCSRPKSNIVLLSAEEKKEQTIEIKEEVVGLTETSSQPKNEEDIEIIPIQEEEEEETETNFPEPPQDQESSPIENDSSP
Assay: FACS, mutant-hCD20 MG87 cells; 100%=best antibody
measureName: Percent of Binding to Mutant Human CD20 (%)
// note: answer is a bare numeric in %

Some solved cases for reference:
9C11-14 (antibody, V domains shown, Fully human IgG, constant region not specified; also called 9C11-14N) VH: QVQLVESGGDSVKPGGSLRLSCAASGFTFSDSYMTWIRQAPGKGLEWVSFISSSGSTIYYADSVKGRFTISRDNVKKSLYLQMNRLRAEDTAVYYCAREEPGNYVYYGMDVWGQGTTVTVSS VL: EIVVTQSPATLSLSPGERATLSCRTSQTTTSYLAWYRQKPGQAPRLLIYDASNRAAGIPARFSGSGSGTDFTLTINSLEPEDFAVYYCQLRTNWITFGQGTRLEIK; 100
6F6-1 (antibody, V domains shown, Fully human IgG, constant region not specified; also called 6F6-1N) VH: AVQLVESGGGLVQPGRSLRLSCAASGFTFRDYAMHWVRQGPGKGLEWVSGISWNTDYIGYADSVKGRFTISRDNAKNSLYLQMNSLRPEDTALYYCAKDARYGRDNYYGMDVWGQGTTVTVSS VL: EIVMTQSPATLSVSPGERATLSCRASQSVSHNLAWYQQKPGQAPRLLIYGAYTRATGIPDRFSGTGSGTEFTLTISSLQSEDFAVFYCQQYNNWPLTFGGGTKVEIK; 0

Enquiry: Give the measured Percent of Binding to Mutant Human CD20 for 2C11-4 (antibody, V domains shown, Fully human IgG, constant region not specified; also called 2C11-4N) VH: EVQLVESGGGLVQPGRSLRLSCAASGFTFRDYAMHWVRQGPGKGLEWVSGISWNTDYIGYADSVKGRFTISRDNAKNSLYLQMNSLRPEDTALYYCAKDARYGRDNYYGMDVWGQGTTVTVSS VL: EIVLTQSPATLSLSPGERATLSCRASQSVSRYLAWYQQKPGQAPRLLIHDASNRATGIPARFSGSGSGTDFTLTITSLEPEDFVVYYCQQRSDWPITFGQGTRLEIK
Return: 0
